Experiment: Pharmacokinetics after single iv or oral S2227 in dogs
Format: in vivo, beagle dogs
Details: male, beagle, dog, plasma, iv, 1 mg/kg
attribute-measured: Cmax

chemical-structure | result
c1csc(CNc2cc[nH]n2)c1 | 5.2 ng/mL

====

Assay: Pharmacokinetics after single iv or oral S2227 in rats
Format: in vivo, Sprague-Dawley rats
Settings: male, Sprague-Dawley, rat, plasma, iv, 1 mg/kg

chemical-structure | half-life, min
c1csc(CNc2cc[nH]n2)c1 | 16.8

====

Assay: Pharmacokinetics after single iv or oral S2227 in rats
Assay type: in vivo, Sprague-Dawley rats
Conditions: female, Sprague-Dawley, rat, plasma, po, 100 mg/kg
attribute-measured: half-life (h)

chemical-structure | attribute-measured | readout-number
c1csc(CNc2cc[nH]n2)c1 | half-life | 1.84

====

Assay: Pharmacokinetics after single iv or oral S2227 in rats
Type: in vivo, Sprague-Dawley rats
Conditions: male, Sprague-Dawley, rat, plasma, po, 10 mg/kg

chemical-structure | unit-info | half-life
c1csc(CNc2cc[nH]n2)c1 | min | 67.2

====

Assay: Pharmacokinetics after single iv or oral S2227 in rats
Format: in vivo, Sprague-Dawley rats
Conditions: male, Sprague-Dawley, rat, plasma, iv, 1 mg/kg

compound | Tmax / min
c1csc(CNc2cc[nH]n2)c1 [M179, N-(2-thienylmethyl)-1H-pyrazol-3-amine] | 6.6

====

Experiment: Pharmacokinetics after single iv or oral S2227 in rats
Type: in vivo, Sprague-Dawley rats
Details: male, Sprague-Dawley, rat, plasma, po, 30 mg/kg

chemical-structure | Cmax / ng/mL
c1csc(CNc2cc[nH]n2)c1 | 290

====

Assay: Pharmacokinetics after single iv or oral S2227 in rats
Format: in vivo, Sprague-Dawley rats
Conditions: female, Sprague-Dawley, rat, plasma, po, 30 mg/kg

chemical-structure | Tmax
c1csc(CNc2cc[nH]n2)c1 | 45 min

====

Assay: Pharmacokinetics after single iv or oral S2227 in dogs
Type: in vivo, beagle dogs
Settings: male, beagle, dog, plasma, po, 100 mg/kg

molecule | unit-info | AUC(0-t)
c1csc(CNc2cc[nH]n2)c1 [M179, N-(2-thienylmethyl)-1H-pyrazol-3-amine] | ng·h/mL | 171

====

Assay: Pharmacokinetics after single iv or oral S2227 in rats
Assay type: in vivo, Sprague-Dawley rats
Settings: male, Sprague-Dawley, rat, plasma, po, 10 mg/kg
attribute-measured: AUC(0-t)

chemical-structure | result
c1csc(CNc2cc[nH]n2)c1 | 254 ng·h/mL

====

Assay: Pharmacokinetics after single iv or oral S2227 in dogs
Type: in vivo, beagle dogs
Settings: male, beagle, dog, plasma, po, 30 mg/kg

molecule | Tmax / h
c1csc(CNc2cc[nH]n2)c1 [M179, N-(2-thienylmethyl)-1H-pyrazol-3-amine] | 1

====

Assay: Pharmacokinetics after single iv or oral S2227 in rats
Format: in vivo, Sprague-Dawley rats
Details: female, Sprague-Dawley, rat, plasma, iv, 1 mg/kg

chemical-structure | Cmax [ng/mL]
c1csc(CNc2cc[nH]n2)c1 | 14

====

Assay: Pharmacokinetics after single iv or oral S2227 in dogs
Format: in vivo, beagle dogs
Conditions: male, beagle, dog, plasma, iv, 1 mg/kg
attribute-measured: Tmax (min)

chemical-structure | readout-number
c1csc(CNc2cc[nH]n2)c1 | 30

====

Experiment: Pharmacokinetics after single iv or oral S2227 in rats
Format: in vivo, Sprague-Dawley rats
Conditions: female, Sprague-Dawley, rat, plasma, po, 10 mg/kg
attribute-measured: Tmax (min)

chemical-structure | readout-number
c1csc(CNc2cc[nH]n2)c1 | 26.4
